measured on: T1, human SLITRK6 on cells (human, UniProt Q9H5Y7 27-841)
T1 construct: whole, on cells
assay overview: flow cytometry on 293F-SLITRK6-C9 cells
observable: EC50 (nM)
Reply numerically in nM, unit not repeated.

// query Quick check: EC50 of hu1H2-03-LD038 (8) (antibody, V domains shown, drug-linker LD038 on cysteines freed by TCEP reduction, DAR 8.0; positions not given, also called hu1H2-03 ADC) VH: EVQLVESGGGLVQPGGSLRLSCAASGFTFSDYGLHWVRQAPGKGLEWVSYISSGSSTVYFADTLKGRFTISRDNAKNSLYLQMNSLRAEDTAVYYCTRGTWYFDVWGRGTLVTVSS VL: DIQMTQSPSSLSASVGDRVTITCRTSENIHSYLAWYQQKPGKSPQLLVYNAKTLADGVPSRFSGSGSGTDYTLTISSLQPEDFGTFYCQHFWTTSRTFGGGTKVEIK ?
// result 1.35

// query Fill in: EC50 of hu1H2-13 (antibody, V domains shown) VH: EVQLVESGGGLVQPGGSLRLSCAASGFTFSDYGLHWVRQAPGKGLEWVAYISSGSSTVYFADTLKGRFTISRDNAKNSLYLQMNSLRAEDTAVYYCTRGTWYFDVWGRGTLVTVSS VL: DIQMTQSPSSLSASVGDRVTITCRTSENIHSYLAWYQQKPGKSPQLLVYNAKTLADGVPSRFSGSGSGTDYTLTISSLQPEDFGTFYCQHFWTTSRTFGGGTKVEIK is ___
// result 1.32

// query EC50 value for entry hu1H2-03 (antibody, V domains shown, see m20) VH: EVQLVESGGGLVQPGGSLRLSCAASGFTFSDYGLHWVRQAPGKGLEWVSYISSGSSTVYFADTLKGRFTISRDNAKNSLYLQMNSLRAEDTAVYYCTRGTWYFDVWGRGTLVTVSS VL: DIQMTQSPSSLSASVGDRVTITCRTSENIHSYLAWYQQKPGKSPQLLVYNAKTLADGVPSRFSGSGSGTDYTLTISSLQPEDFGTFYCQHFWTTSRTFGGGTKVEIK
// result 1.33

// query Query: EC50; subject: phA108-LD038 (8) (antibody, V domains shown, drug-linker LD038 on cysteines freed by TCEP reduction, DAR 8.0; positions not given, also called phA108 ADC) VH: QVQLVQSGAEVKKPGASVKVSCTASGYIFNDYYLHWVRQAPGQGLEWVGIINPSGGSPVYAQKFQGRVTMTRDTSTNTVYMELSSLRSEDTAVYYCARGMVRGVRLFDYWGQGTLVTVSA VL: EIVLTQSPATLSLSPGERATLSCRASQSVSSYLAWYQQKPGQTPRLLIYDASNRATGVPARFSGSGSGTDFTLTISSLETEDFAVYYCQQRTNWPLTFGGGTKVEIK
// result 1.09
